experimentSummary: Viability Counterscreen for CMV-Luciferase Assay of Inhibitors of ATXN expression; note: nearly all actives have a fitted effect of over 55% in size; note: potency is the fitted concentration of half-maximal effect
conditionsUsed: HEK-293 CMV-luciferase cells viability, protease fluorescence, 24 h
In all, about 2,100 compounds went through this assay and about 320 (15%) were called active. About 52% were inconclusive and are not listed. The list shows a part of the results.
outcomeMeasure: Potency

>>> print(df.to_string())
                                   compound          reported
0  Cc1cc(C(=O)N/N=C/c2cc(Br)ccc2OC(=O)c2ccccc2)n[nH]1          inactive
1  CC1CC(C)CN(CCCNC(=O)c2cc3c(s2)-c2ccccc2OC3)C1 (stereo not given)          inactive
2  Cc1nnc(SC(C)C(=O)Nc2ccc(Cl)cn2)n1Cc1ccccc1 (stereo not given)          inactive
3  CC(C)C(CCNCc1ccccn1)c1ccc(Cl)cc1 (stereo not given)          inactive
4  CO[C@@]12[C@@H]3N[C@@H]3CN1C1=C(C(=O)C(N)=C(C)C1=O)[C@@H]2COC(N)=O          inactive
5          CCOc1cc(CNCCO)cc(Br)c1OCc1ccccc1          inactive
6  Cc1cccc2c1-c1sc(C(=O)Nc3ccccc3N3CCN(C)CC3)cc1CO2  22.4 µM (active)
7  Cc1cc(C)nc(/N=C(\N)Nc2ccc(OCc3ccccc3)cc2)n1          inactive
8  N#C/C(=C\Nc1ccc2cn[nH]c2c1)c1nc(-c2ccc(Cl)cc2)cs1          inactive
9  Cc1cc(N2CCN(C)CC2)ccc1NC(=O)c1ccc(-c2ccc(Cl)cc2)o1          inactive
